test system: CCRIS mutagenicity, Ames/micronucleus/aberration tests; test: CCRIS mutagenicity studies; details: Test System: AMES SALMONELLA TYPHIMURIUM; Strain/Indicator: TA7002; Metabolic Activation: RAT LIVER S-9, AROCLOR 1254; Method: FLUCTUATION (MICROTITER)
Activity calls are given as the source filed them. The rule behind the calls is not given here.
recordedMetric: mutagenic call

> print(dat)
                       compound  recordedmetric      observedresult
1  CC(O)CCl (centres undefined)  mutagenic call  inactive; negative
2                     Oc1ccccc1  mutagenic call  inactive; negative
3                   O=Cc1ccccc1  mutagenic call  inactive; negative
